Origin of the recorded values: PubChem BioAssay (NCI)

- System: A498 renal
- method.notes: NCI tumour cell line growth inhibition, 48 h
Kindly supply the reported TGI values for the records listed here.

input: Tell me the measured TGI of `Cc1ccc(-n2c(=S)[nH]c3ccc(Br)cc3c2=O)cc1` , please.
output: > 100 µM

input: Cool, now `CN1CCN(Cc2ccc(NC(=O)c3cncc(C#Cc4cnc5ccc(Cl)nn45)c3)cc2C(F)(F)F)CC1`
output: 2.6 µM

input: Same question, CC1(C)OC(CCC#N)CN1C(=O)OCc1ccccc1 (stereo not given) this time
output: > 100 µM

input: Note, next up: `COc1ccc(NC=O)c(C(=O)CCNC(C)=O)c1`
output: > 100 µM

input: Next up: `CCOP(=O)(OCC)/C(C#N)=C/c1nccn1C`
output: > 100 µM

###

Could you please report measured TGI for the items listed next?
- Test system: CAKI-1 renal
- method.notes: NCI tumour cell line growth inhibition, 48 h
Response body: numeric value in µM, unit text excluded.

input: Missing value: TGI, CAKI-1 renal, entry `O=C(O)c1c[nH]c2cc(OCc3ccccc3)ccc2c1=O` . Fill in?
output: 40.1

input: How about this compound: `NC(=O)c1ccc(NCC2=CC(=O)C=CC2=O)cc1`
output: 34.2

input: Please do the same for `Nc1nc(CCl)nc(N2CCOCC2)n1` as well.
output: 30.5

input: Also `N=C(N)c1ccc(-c2ccc(-c3cccs3)o2)cc1` ?
output: 5.2

input: Now this one: `[O-][n+]1c2cc(CBr)c(CBr)cc2[n+]([O-])c2c(O)cccc21`
output: 6.7

input: Now consider COc1ccc(N2C(=O)C3c4[nH]c5c(C)cccc5c4C4CCC(c5ccccc5)CC4C3C2=O)cc1 (centres undefined) and answer again.
output: 39.3

input: Okay, and `C=C1C(=O)O[C@H]2[C@H]1CC/C(COC(=O)NCc1c[nH]c3ccc(Br)cc13)=C\CC[C@@]1(C)O[C@@H]21` ?
output: 2.94

input: And for C1CCC(C(CC2CCCCN2)C2CCCCC2)CC1 (centres undefined) ?
output: 3.06

###

Kindly state TGI for each of the entries shown.
- System: SN12C renal
- method.notes: NCI tumour cell line growth inhibition, 48 h
Number only, in µM; omit the unit.

input: So what's the measured TGI for this one? `C/C(=N\NC(=S)N1CCN(c2ccccn2)CC1)c1cccc(C)n1`
output: 21.9

input: Follow-up item: COc1ccc(N2C(=O)C3c4[nH]c5c(C)cccc5c4C4CCC(c5ccccc5)CC4C3C2=O)cc1 (centres undefined)
output: 59.5

input: `C=C(C)[C@@H]1CC[C@]2(C)[C@H](CC[C@@H]3[C@@H]([C@@](C)(O)CCC=C(C)C)CC[C@]32C)[C@@]1(C)CCC(=O)N1CCN(C)CC1` ?
output: 24.2

input: What about this compound? `COC(=O)[C@]1(C)CCC[C@]2(C)[C@H]3CC[C@]4(C(C)C)OO[C@@H](O4)[C@]34O[C@@H]4C[C@H]21`
output: 12

###

- Tested on: LOX IMVI melanoma
- method.notes: NCI tumour cell line growth inhibition, 48 h; in the data active = GI50 below about 0.43 µM; inactive = the rest
// one of YES for active, NO for inactive, no free text

input: Please let me know the test result on file for `NC(=O)c1cc(Cl)ccc1NC(=O)COc1ccccc1` .
output: NO

input: Queued: `O=C(Nc1ccc(-n2ccc3c(NC(=O)c4ccccc4)ncnc32)cc1)c1ccc(Cl)c(C(F)(F)F)c1`
output: YES

input: Next compound: `COc1ccc2c(c1)C(=O)c1c-2c(=O)n(CCCCCCC(=O)NO)c2ccccc12`
output: YES

input: Try `Oc1cc(Cn2cnc3c(Cl)nc(Cl)nc32)ccc1C12CC3CC(CC(C3)C1)C2` next.
output: NO

input: Do the same for CC(C)=C[C@@H]1C[C@H](C)[C@H]2CC[C@H](C)c3c(O)c(OC4OCC(O)C(O)C4O)c(C)c1c32 (stereo not given in full) please
output: NO

input: // query: CC(=O)O[C@H]1[C@@H]2OC(=O)C3(CC3)C2C[C@H]2O[C@]2(C)CC/C=C(\C)CCC[C@@H]1C (stereo not given in full)
output: NO

input: Next compound: `Oc1ccc(Cl)cc1-c1cc(-c2ccc(Cl)cc2)n[nH]1`
output: NO

input: What about CN1C(=O)C23CC4(C56CC78SSC(CO)(C(=O)N7C5Nc5ccccc56)N(C)C8=O)c5ccccc5NC4N2C(=O)C1(CO)SS3 (stereo not given) ?
output: YES

input: Also, `Cc1cnc(NC2CCOCC2)nc1-n1cnc(C(=O)N[C@H](CN)c2cc(F)cc(Cl)c2)c1` please.
output: YES

input: Now the compound `COc1ccc2[nH]c(=O)c(/C=C/C(=O)c3ccccc3OC)cc2c1`
output: YES
